All figures here come from patent US20150037339A1.

Study Target: T1, Activin A (human, UniProt P08476 311-426)
T1 construct: Homodimer of two βA subunits; bought from R&D Systems (#338-AC); also called inhibin-βA dimer; human Activin A
T1 sequence: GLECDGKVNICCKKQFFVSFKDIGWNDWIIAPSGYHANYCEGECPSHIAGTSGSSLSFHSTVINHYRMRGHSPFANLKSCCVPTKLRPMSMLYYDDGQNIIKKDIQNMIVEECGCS
Procedure Summary: SPR, captured mAb, 25C
Measurement Name: t1/2

[[record]]
binder = "H4H10430P (antibody, human IgG4, V domains shown, also called H4H1430P; H4H10430P2) VH: EVQLVESGGGLVQPGRSLRLSCKASGFAFDDFAMHWVRQAPGKGLEWVSGIVWNSGDIGYADSVKGRFTISRDNAKNSLYLQLNSLRTEDTALYFCVKDMVRGLMGFNYYGMDVWGQGTTVTVSS VL: EIVLTQSPATLSLSPGERATLSCRASQTISTYLVWYRQRPGQAPSLLIYDASNRATDIPARFSGSGSGTDFTLTISSLEPEDFAVYYCQQRSNWPITFGQGTRLEIK"
obs_value = "69 min"

[[record]]
binder = "H4H10429P (antibody, human IgG4, V domains shown) VH: QVQLVESGGGVVQPGRSLRLSCVASGFTVSSYGIHWVRQAPGKGLEWVSVIWYDGRNKDYADSVKGRFTISRDNSKNTVYLEMKGLRAEDTALYYCARDKTGDFDSWGQGTLVTVSS VL: DIQMTQSPSSLSASVGDRVTITCRASQNINSFLSWYQQKPGKAPKFLIYDASSIQSGAPSRFSGSGSGTDFTLTISSLQPEDFATYYCQQSYSSPFTFGQGTKLEIK"
obs_value = "181 min"

[[record]]
binder = "H4H10424P (antibody, human IgG4, V domains shown) VH: QVQLVESGGGVVQPGRSLRLSCAASGFTFSSYGMHWVRQAPGKGLEWVAVIWYDGSNKYNADSVKGRFTISRDNSKNTVYLQMNSLRAEDTAVYYCARARNYDILTGYYNLGMDVWGQGTTVTVSS VL: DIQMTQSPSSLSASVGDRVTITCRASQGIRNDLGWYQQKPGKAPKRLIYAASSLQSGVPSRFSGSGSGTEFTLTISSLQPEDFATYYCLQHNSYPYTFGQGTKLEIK"
obs_value = "16 min"

[[record]]
binder = "H4H10426P (antibody, human IgG4, V domains shown) VH: EVQLVESGGNLVQSGRSLRLSCTASGFAFDDFAMHWVRQVPGKGLEWVSGISWNSDTIGYADSVKGRFTISRDNAQNSLFLQMDSLRAEDTALYYCVKDMVRGLIGYYYYGMDVWGQGTTVTVSS VL: EIVLTQSPAILSLSPGERAILSCRASQSIYTYLSWYQQTPGRAPRLLIYETSSRATGIPARFIGSGSGTDFTLTISSLEPEDFAFYYCQHRSDWPPTFGQGTKLEIK"
obs_value = "16 min"

